Entries and their measured IC200 follow.
- Tested on: Plasma
- procedureSummary: Anticoagulant activity in human plasma by TT assay
- Format: functional

Before answering, review these 2 worked examples.
CCCS(=O)(=O)NC(CCc1cccc[n+]1[O-])C(=O)NCC(=O)NCc1cc(Cl)ccc1CN (centres undefined)	6.5 µM
CCOC(=O)CN[C@H](CCc1cccc[n+]1[O-])C(=O)N1CCC[C@H]1C(=O)NCc1cc(Cl)ccc1CN	0.1 µM

Now consider a different compound.
Please give the measured IC200 for this compound: CCOC(=O)CN[C@H](CCc1ccccn1)C(=O)N1CCC[C@H]1C(=O)NCc1cc(Cl)ccc1CN 0.09 µM
